target.of.assay: human ether-à-go-go-related gene (hERG) potassium channel (human);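 note: peak tail current of the secondary pulse compared with the same well before compound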
test.details: primary screen, population patch clamp on CHO cells stably expressing hERG; higher = less effect of the substance
The campaign covered roughly 310,000 compounds. About 14,000 (4.5%) showed an effect of 50% or more. Effects have a minus sign here. The sample holds strong results, similar compounds and a random draw of the others, so the mix is not that of the screen.
readout.kind: hERG current change (%, negative = inhibition) at 10uM (%)
Only the number, expressed in %, is required.

IN: Look up and state reported hERG current change (%, negative = inhibition) at 10uM for CN1C(=O)C(CC(=O)Nc2ccc(F)cc2)N(NC(=O)c2cccc(F)c2)C1=S (stereo not drawn)
OUT: -3.79

IN: For the molecule CCN(CC)CCn1c2ccccc2c2cnc(N)c(C#N)c21 , give its reported hERG current change (%, negative = inhibition) at 10uM.
OUT: -60.5

IN: For the molecule Br.N=c1n(CC(=O)c2ccc([N+](=O)[O-])cc2)c2ccccc2n1Cc1ccccc1 , report hERG current change (%, negative = inhibition) at 10uM.
OUT: -70.1

IN: For the molecule Br.N=c1n(CC(=O)c2ccc([N+](=O)[O-])cc2)c2ccccc2n1Cc1ccccc1Cl , give its reported hERG current change (%, negative = inhibition) at 10uM.
OUT: -23.6

IN: Using known records, supply hERG current change (%, negative = inhibition) at 10uM for Br.CCCn1c(=N)n(CC(=O)c2ccc(OCC(=O)OC)cc2)c2ccccc21
OUT: -52.7

IN: Please look at this molecule and report its hERG current change (%, negative = inhibition) at 10uM: O=C(Cn1c(SCC(=O)NC2CCCC2)nnc1-c1ccncc1)Nc1ccc2c(c1)OCO2
OUT: -11.7

IN: Give the measured hERG current change (%, negative = inhibition) at 10uM for N=c1n(CC(=O)c2ccc(Br)cc2)c2ccccc2n1Cc1ccccc1.[Br-]
OUT: -9.25

IN: Please give measured hERG current change (%, negative = inhibition) at 10uM of the following entry: O=C(Nc1ccccc1Cl)OC1CCCCC1
OUT: 22.7

IN: Check the records and state hERG current change (%, negative = inhibition) at 10uM for Br.N=c1n(CC(=O)c2ccc([N+](=O)[O-])cc2)c2ccccc2n1Cc1ccc(Cl)cc1
OUT: -14.3

* * *

target.of.assay: human ether-à-go-go-related gene (hERG) potassium channel (human, UniProt Q12809);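 note: peak tail current of the secondary pulse compared with the same well before compound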
Sequence (Q12809 whole entry, looked up): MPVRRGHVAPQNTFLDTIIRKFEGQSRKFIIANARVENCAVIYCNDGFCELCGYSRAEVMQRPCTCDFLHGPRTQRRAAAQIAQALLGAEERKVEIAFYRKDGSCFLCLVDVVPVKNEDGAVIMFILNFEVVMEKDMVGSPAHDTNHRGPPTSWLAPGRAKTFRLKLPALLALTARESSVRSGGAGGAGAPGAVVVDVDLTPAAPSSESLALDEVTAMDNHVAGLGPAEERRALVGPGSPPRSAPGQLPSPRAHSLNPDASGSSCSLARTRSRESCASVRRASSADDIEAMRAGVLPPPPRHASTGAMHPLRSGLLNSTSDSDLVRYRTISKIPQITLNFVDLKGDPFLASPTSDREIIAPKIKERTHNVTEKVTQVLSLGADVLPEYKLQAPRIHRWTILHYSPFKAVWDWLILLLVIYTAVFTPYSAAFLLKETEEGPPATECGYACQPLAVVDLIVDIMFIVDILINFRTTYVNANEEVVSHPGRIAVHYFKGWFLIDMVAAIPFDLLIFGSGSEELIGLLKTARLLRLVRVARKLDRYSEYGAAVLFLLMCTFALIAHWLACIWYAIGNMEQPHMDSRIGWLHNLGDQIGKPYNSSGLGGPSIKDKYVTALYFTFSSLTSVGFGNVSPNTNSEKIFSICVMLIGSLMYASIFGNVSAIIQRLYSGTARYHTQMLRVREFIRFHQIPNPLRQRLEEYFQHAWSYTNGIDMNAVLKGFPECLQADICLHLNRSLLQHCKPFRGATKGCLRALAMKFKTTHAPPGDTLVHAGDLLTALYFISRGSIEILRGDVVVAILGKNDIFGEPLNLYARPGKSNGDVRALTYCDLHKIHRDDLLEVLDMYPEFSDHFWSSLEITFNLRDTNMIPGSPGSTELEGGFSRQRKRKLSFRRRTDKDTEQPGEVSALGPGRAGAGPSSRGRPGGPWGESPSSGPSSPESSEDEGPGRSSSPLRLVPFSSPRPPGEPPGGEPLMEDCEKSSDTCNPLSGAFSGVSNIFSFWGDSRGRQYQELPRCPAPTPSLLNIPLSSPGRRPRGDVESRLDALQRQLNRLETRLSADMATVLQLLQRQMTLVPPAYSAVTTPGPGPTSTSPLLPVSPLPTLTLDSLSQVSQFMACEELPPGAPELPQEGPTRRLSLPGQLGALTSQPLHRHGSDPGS
test.details: primary screen, population patch clamp on CHO cells stably expressing hERG; higher = less effect of the substance
About 14,000 (4.5%) of roughly 310,000 compounds showed an effect of 50% or more. Effects have a minus sign here. The entries come from a sample that favours strong results as a whole.
readout.kind: hERG current change (%, negative = inhibition) at 10uM (%)
A number alone suffices; assume %.

IN: Identify measured hERG current change (%, negative = inhibition) at 10uM associated with O=C(O)c1cccc(N2C(=O)c3cccc4cccc(c34)C2=O)c1
OUT: 12.7

IN: Report hERG current change (%, negative = inhibition) at 10uM for CCN(CC)C(=O)CSC1=Nc2ccccc2C2=NC(c3ccccc3)C(=O)N12 (centres unmarked)
OUT: -46.4

IN: Entry Cc1sc(N)c(C(=O)c2ccccc2)c1C needs its hERG current change (%, negative = inhibition) at 10uM filled in; supply it.
OUT: 9.41

IN: Specify hERG current change (%, negative = inhibition) at 10uM for CCOC(=O)C(NC(=O)CC)(Nc1ccc(S(=O)(=O)Nc2ncccn2)cc1)C(F)(F)F (centres unmarked) and stop.
OUT: 22.5

IN: Return reported hERG current change (%, negative = inhibition) at 10uM. Input compound: COCCn1c(SCC(=O)Nc2cc(C)on2)nc2c(c1=O)SC(C)C2 (centres unmarked)
OUT: 10.5

IN: Identify measured hERG current change (%, negative = inhibition) at 10uM associated with O=C(Cc1ccc(Cl)cc1)Nc1ccc(N2CCCC2)cc1
OUT: 17.3

IN: Name the recorded hERG current change (%, negative = inhibition) at 10uM of the item N/C(=N\OC(=O)Nc1ccccc1)c1ncc([N+](=O)[O-])s1 in your answer.
OUT: -2.31

IN: Recall and state the measured hERG current change (%, negative = inhibition) at 10uM for Cc1ccc(Cl)cc1N1CCN(CC(=O)Nc2ccc3[nH]c(=O)[nH]c3c2)CC1 .
OUT: 11.1

IN: Please supply the value of reported hERG current change (%, negative = inhibition) at 10uM for the item C=CCNC1=C(Cl)C(=O)c2ccccc2C1=O
OUT: 4.26

IN: Give me measured hERG current change (%, negative = inhibition) at 10uM, please, for this compound: O=C(c1ccccc1)c1c2c(cc3sc4ccccc4[n+]13)-c1cccc3cccc-2c13.[Br-]
OUT: -76.8

IN: Dear colleague, please send me the reported hERG current change (%, negative = inhibition) at 10uM for O=C(CSC1=Nc2ccccc2C2=NC(c3ccccc3)C(=O)N12)NC1CCCCC1 (centres unmarked) when you can.
OUT: -20.1

IN: For the compound Cc1ccc(Cl)cc1N1CCN(CC(=O)Nc2ccc(CN3CCCCC3)cc2)CC1.Cl , give its reported hERG current change (%, negative = inhibition) at 10uM.
OUT: -71.1

IN: Entry O=C(Nc1ccccc1)N1CCCN(Cc2ccccc2F)C1 needs its hERG current change (%, negative = inhibition) at 10uM filled in; supply it.
OUT: -8.48

IN: Name the recorded hERG current change (%, negative = inhibition) at 10uM of the item Cn1nc(C(F)(F)F)c(/C=N/OC(=O)c2ccccc2Cl)c1SCc1ccccc1Cl in your answer.
OUT: -5.41

IN: Specify hERG current change (%, negative = inhibition) at 10uM for Cc1sc2cc3c(c(C(=O)c4ccccc4)[n+]2c1C)-c1cccc2cccc-3c12.[Br-] and stop.
OUT: -77.1

IN: Please look at this compound and report its hERG current change (%, negative = inhibition) at 10uM: CN(C)/C=N/c1ncc(C(=O)c2ccccc2)s1
OUT: 1.48

IN: Output measured hERG current change (%, negative = inhibition) at 10uM for this item: C/C=C(/C)C(=O)Nc1cccc(C2=NOC3(C2)C[C@@H](C(N)=O)N(C(=O)CCCCC)C3)c1 (some centres unmarked)
OUT: -40.1

IN: Output hERG current change (%, negative = inhibition) at 10uM of FC(F)(F)c1ccc(-c2csc(-c3ccno3)n2)cc1
OUT: 1.72

IN: Check the records and state hERG current change (%, negative = inhibition) at 10uM for O=C(Nc1ccc(Cl)cc1)N1CCCN(Cc2ccc(F)cc2)C1
OUT: -75.4

IN: Recall and state the measured hERG current change (%, negative = inhibition) at 10uM for CC(=O)Nc1ccc(S(=O)(=O)N2CCSC2)cc1 .
OUT: 1.65
